Target: Cereblon isoform 4 (Magnetospirillum gryphiswaldense, UniProt A4TVL0)
Sequence (A4TVL0 whole entry): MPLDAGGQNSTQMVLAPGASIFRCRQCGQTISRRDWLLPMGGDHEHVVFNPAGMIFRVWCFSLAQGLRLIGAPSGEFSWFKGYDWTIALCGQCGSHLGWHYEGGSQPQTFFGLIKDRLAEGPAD
Experiment: Inhibition of MANT-uracil binding to wild-type Magnetospirillum gryphiswaldense CRBN isoform 4 by FRET assay
Each record gets a class by Ki: low (below 9 µM), intermediate (9 µM to below 20 µM), high (20 µM or more)

Compound: O=C(O)CCC(=O)NCc1ccc(COC(=O)NC2CC(=O)NC2=O)cc1 (stereo not drawn)
Cat: intermediate
--
Compound: CC(C)=CC(=O)NC1CC(=O)NC1=O (stereo not drawn)
Cat: high
--
Compound: NCc1ccc(COC(=O)NC2CC(=O)NC2=O)cc1.O=C(O)C(F)(F)F (stereo not drawn)
Cat: intermediate
--
Compound: O=C1CC(N2C(=O)c3ccc([N+](=O)[O-])cc3C2=O)C(=O)N1 (stereo not drawn)
Cat: intermediate
--
Compound: O=C1CC(NC(=O)c2cc([N+](=O)[O-])cc([N+](=O)[O-])c2)C(=O)N1 (stereo not drawn)
Cat: high
--
Compound: Nc1cccc2c1C(=O)N(C1CC(=O)NC1=O)C2=O (stereo not drawn)
Cat: high
--
Compound: O=C1CC(NC(=O)Cc2ccccc2)C(=O)N1 (stereo not drawn)
Cat: high
--
Compound: O=C1CC(N2C(=O)c3cccc([N+](=O)[O-])c3C2=O)C(=O)N1 (stereo not drawn)
Cat: high
--
Compound: Nc1cccc2c1C(=O)N(C1CCC(=O)NC1=O)C2=O (stereo not drawn) [POMALIDOMIDE]
Cat: low
--
Compound: O=C1CC(NC(=O)c2sc3ccccc3c2Cl)C(=O)N1 (stereo not drawn)
Cat: high
--
Compound: Nc1cccc2c1CN(C1CCC(=O)NC1=O)C2=O (stereo not drawn) [LENALIDOMIDE]
Cat: low
--
Compound: O=C1CCC(NC(=O)OC[C@@H]2CCCN2)C(=O)N1 (stereo partly drawn)
Cat: high
--
Compound: O=C1CC(NC(=O)OCc2ccccc2)C(=O)N1 (stereo not drawn)
Cat: low
--
Compound: O=C1CCC(N2C(=O)c3cccc([N+](=O)[O-])c3C2=O)C(=O)N1 (stereo not drawn)
Cat: high
--
Compound: O=C(O)CCC(=O)NCc1ccc(COC(=O)NC2CCC(=O)NC2=O)cc1 (stereo not drawn)
Cat: high

----------
target: Protein cereblon/Zinc finger protein Aiolos (Homo sapiens) (UniProt Q96SW2+Q9UKT9); assay: Inhibition of CRBN-mediated IKFZ3 degradation in human OPM2 cells measured after 24 hrs by Western blot analysis; type: cell-based
Sequence (Q96SW2 whole entry, looked up): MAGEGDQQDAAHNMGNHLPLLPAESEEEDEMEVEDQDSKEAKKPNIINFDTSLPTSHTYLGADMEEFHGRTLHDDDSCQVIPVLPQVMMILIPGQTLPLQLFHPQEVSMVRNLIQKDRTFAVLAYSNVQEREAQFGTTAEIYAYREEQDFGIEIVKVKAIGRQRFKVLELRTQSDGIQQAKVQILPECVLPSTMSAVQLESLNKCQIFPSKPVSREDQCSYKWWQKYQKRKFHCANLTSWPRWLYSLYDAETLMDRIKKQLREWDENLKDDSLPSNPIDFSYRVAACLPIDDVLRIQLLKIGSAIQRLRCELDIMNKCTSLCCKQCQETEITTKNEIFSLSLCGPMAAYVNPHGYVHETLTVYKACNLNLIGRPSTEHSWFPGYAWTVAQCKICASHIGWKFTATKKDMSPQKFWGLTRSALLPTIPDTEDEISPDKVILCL
Sequence (Q9UKT9 whole entry, looked up): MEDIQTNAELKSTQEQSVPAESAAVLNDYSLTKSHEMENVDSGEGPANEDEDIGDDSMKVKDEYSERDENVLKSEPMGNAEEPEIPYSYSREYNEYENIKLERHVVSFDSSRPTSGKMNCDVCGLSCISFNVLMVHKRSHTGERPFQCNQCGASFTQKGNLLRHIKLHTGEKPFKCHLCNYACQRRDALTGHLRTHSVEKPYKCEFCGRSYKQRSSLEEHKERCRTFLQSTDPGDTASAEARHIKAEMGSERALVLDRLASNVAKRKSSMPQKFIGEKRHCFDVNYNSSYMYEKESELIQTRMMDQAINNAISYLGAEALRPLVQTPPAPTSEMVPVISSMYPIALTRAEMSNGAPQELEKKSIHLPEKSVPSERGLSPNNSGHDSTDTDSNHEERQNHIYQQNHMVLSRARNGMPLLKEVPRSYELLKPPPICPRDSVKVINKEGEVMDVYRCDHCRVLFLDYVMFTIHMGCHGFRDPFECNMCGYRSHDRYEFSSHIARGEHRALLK
The source made the active and inactive calls. No cut-off for these calls is given here.
Measured attribute: inhibition

Compound: NC[C@H]1CC[C@@H](COC(=O)NC2CCC(=O)NC2=O)CC1.O=C(O)C(F)(F)F (stereo partly specified)
Measured on: Protein cereblon/Zinc finger protein Aiolos (Homo sapiens) (UniProt Q96SW2+Q9UKT9)
Measured attribute: inhibition
Value reported: inactive
--
Compound: O=C1CC(NC(=O)c2cc([N+](=O)[O-])cc([N+](=O)[O-])c2)C(=O)N1 (stereo unspecified)
Measured on: Protein cereblon/Zinc finger protein Aiolos (Homo sapiens) (UniProt Q96SW2+Q9UKT9)
Measured attribute: inhibition
Value reported: inactive
--
Compound: O=C1CCC(N2C(=O)c3ccc([N+](=O)[O-])cc3C2=O)C(=O)N1 (stereo unspecified)
Measured on: Protein cereblon/Zinc finger protein Aiolos (Homo sapiens) (UniProt Q96SW2+Q9UKT9)
Measured attribute: inhibition
Value reported: inactive
--
Compound: O=C1CCC(NC(=O)OC[C@@H]2CCCN2)C(=O)N1 (stereo partly specified)
Measured on: Protein cereblon/Zinc finger protein Aiolos (Homo sapiens) (UniProt Q96SW2+Q9UKT9)
Measured attribute: inhibition
Value reported: inactive
--
Compound: CC(C)=CC(=O)NC1CC(=O)NC1=O (stereo unspecified)
Measured on: Protein cereblon/Zinc finger protein Aiolos (Homo sapiens) (UniProt Q96SW2+Q9UKT9)
Measured attribute: inhibition
Value reported: inactive
--
Compound: O=C1CC(NC(=O)Cc2ccccc2)C(=O)N1 (stereo unspecified)
Measured on: Protein cereblon/Zinc finger protein Aiolos (Homo sapiens) (UniProt Q96SW2+Q9UKT9)
Measured attribute: inhibition
Value reported: inactive
--
Compound: O=C(O)CCC(=O)NCc1ccc(COC(=O)NC2CC(=O)NC2=O)cc1 (stereo unspecified)
Measured on: Protein cereblon/Zinc finger protein Aiolos (Homo sapiens) (UniProt Q96SW2+Q9UKT9)
Measured attribute: inhibition
Value reported: inactive
--
Compound: O=C1CCC(N2C(=O)c3cccc([N+](=O)[O-])c3C2=O)C(=O)N1 (stereo unspecified)
Measured on: Protein cereblon/Zinc finger protein Aiolos (Homo sapiens) (UniProt Q96SW2+Q9UKT9)
Measured attribute: inhibition
Value reported: inactive
--
Compound: O=C(O)CCC(=O)NCc1ccc(COC(=O)NC2CCC(=O)NC2=O)cc1 (stereo unspecified)
Measured on: Protein cereblon/Zinc finger protein Aiolos (Homo sapiens) (UniProt Q96SW2+Q9UKT9)
Measured attribute: inhibition
Value reported: inactive
--
Compound: O=C1CC(N2C(=O)c3cccc([N+](=O)[O-])c3C2=O)C(=O)N1 (stereo unspecified)
Measured on: Protein cereblon/Zinc finger protein Aiolos (Homo sapiens) (UniProt Q96SW2+Q9UKT9)
Measured attribute: inhibition
Value reported: inactive
--
Compound: O=C1CC(NC(=O)c2sc3cccc(Cl)c3c2Cl)C(=O)N1 (stereo unspecified)
Measured on: Protein cereblon/Zinc finger protein Aiolos (Homo sapiens) (UniProt Q96SW2+Q9UKT9)
Measured attribute: inhibition
Value reported: inactive
--
Compound: O=C1CC(NC(=O)c2sc3ccccc3c2Cl)C(=O)N1 (stereo unspecified)
Measured on: Protein cereblon/Zinc finger protein Aiolos (Homo sapiens) (UniProt Q96SW2+Q9UKT9)
Measured attribute: inhibition
Value reported: inactive
--
Compound: NCc1ccc(COC(=O)NC2CC(=O)NC2=O)cc1.O=C(O)C(F)(F)F (stereo unspecified)
Measured on: Protein cereblon/Zinc finger protein Aiolos (Homo sapiens) (UniProt Q96SW2+Q9UKT9)
Measured attribute: inhibition
Value reported: inactive
--
Compound: O=C1CC(N2C(=O)c3ccc([N+](=O)[O-])cc3C2=O)C(=O)N1 (stereo unspecified)
Measured on: Protein cereblon/Zinc finger protein Aiolos (Homo sapiens) (UniProt Q96SW2+Q9UKT9)
Measured attribute: inhibition
Value reported: inactive
--
Compound: O=C1CC(NC(=O)OC[C@@H]2CCCN2)C(=O)N1 (stereo partly specified)
Measured on: Protein cereblon/Zinc finger protein Aiolos (Homo sapiens) (UniProt Q96SW2+Q9UKT9)
Measured attribute: inhibition
Value reported: inactive
--
Compound: NC[C@H]1CC[C@@H](COC(=O)NC2CC(=O)NC2=O)CC1.O=C(O)C(F)(F)F (stereo partly specified)
Measured on: Protein cereblon/Zinc finger protein Aiolos (Homo sapiens) (UniProt Q96SW2+Q9UKT9)
Measured attribute: inhibition
Value reported: inactive

----------
target: Cereblon isoform 4 (Magnetospirillum gryphiswaldense); assay: Inhibition of MANT-uracil binding to wild-type Magnetospirillum gryphiswaldense CRBN isoform 4 by FRET assay

Compound: O=C(/C=C/c1ccccc1)NC1CC(=O)NC1=O (stereo not drawn)
Measured on: Cereblon isoform 4 (Magnetospirillum gryphiswaldense)
Unit tag: µM
Ki: 20

Compound: O=C1CC(NC(=O)c2sc3cccc(Cl)c3c2Cl)C(=O)N1 (stereo not drawn)
Measured on: Cereblon isoform 4 (Magnetospirillum gryphiswaldense)
Unit tag: µM
Ki: 20

Compound: O=C1CCC(N2C(=O)c3ccc([N+](=O)[O-])cc3C2=O)C(=O)N1 (stereo not drawn)
Measured on: Cereblon isoform 4 (Magnetospirillum gryphiswaldense)
Unit tag: µM
Ki: 9
